Test system: Raji (Burkitt lymphoma) cells
measurement_protocol: MTT antiproliferative assay, Raji
Format: cell-based, human
experimental_parameters: Homo sapiens, Raji; 72 h, MTT, mean ± SD of three independent experiments
Simple rule here: GI50 less than 10 µM is Met, otherwise Not met.

- Clc1ccc2c(Nc3cccc(-c4nc5ccccc5[nH]4)c3)ccnc2c1 [Compound 5d]: Met
- Clc1ccc2[nH]c(-c3ccc(N4CCN(c5ccnc6cc(Cl)ccc56)CC4)cc3)nc2c1 [Compound 8e]: Not met
- CC(C)NC(=N)c1ccc2[nH]c(-c3ccc(N4CCN(c5ccnc6cc(Cl)ccc56)CC4)cc3)nc2c1 [Compound 8b]: Not met
- Clc1ccc2c(Nc3cccc(-c4nc5cc(C6=NCCN6)ccc5[nH]4)c3)ccnc2c1 [Compound 5c]: Not met
- Clc1ccc2[nH]c(-c3cccc(Nc4ccnc5cc(Cl)ccc45)c3)nc2c1 [Compound 5e]: Met
- CC(C)NC(=N)c1ccc2[nH]c(-c3cccc(Nc4ccnc5cc(Cl)ccc45)c3)nc2c1 [Compound 5b]: Not met
- N=C(N)c1ccc2[nH]c(-c3ccc(C(=O)NCCNc4ccnc5cc(Cl)ccc45)cc3)nc2c1 [Compound 12a]: Met
- Clc1ccc2c(N3CCN(c4ccc(-c5nc6cc(C7=NCCN7)ccc6[nH]5)cc4)CC3)ccnc2c1 [Compound 8c]: Not met

From: paper PMC9866588
